# protocol.text: yeast display, Sf9 membrane polyspecificity reagent, FACS + sequencing; frameworks hold sequencing errors
endpoint.label: polyreactivity (PSR sort gate)

QVQLVESGGGLVQAGGSLRLSCAASGRIFNSYAMGCYRQAPGKERELVAAINWTDVSTYYADSVKGRFTISRDNAKNTVYLQMNSLKPEDTAVYYCAAVRWGSYTLSDDYWGQGTQVTVSS
low polyreactivity
QVQLVESCGGLVQAGGSLRLSCAASGIIFGVYALGWYRQAPGKERELVAAIDGNGSSTSYADSVKGRFSISRDNAKNTVYLQINSLKPEDTAVYYCAAGYWYYLYYCYDFDYWGQGTQVTVSS
low polyreactivity

---

# protocol.text: yeast display, Sf9 membrane polyspecificity reagent, FACS + sequencing; frameworks hold sequencing errors
endpoint.label: polyreactivity (PSR sort gate)

Answered cases to consult:
QVHLVESGGGFVQAGGSLRLSCAASGSIFVINGMGWYRQAPGKERELVAAISSRGGDTYYADSVKGRFTISRDNAKNTVYLQMNSLKPEDTAVYYCNARYYTSYDYWGQGTKVTVSS
low polyreactivity
QVQHEKSRGALVQAGGSLRLSCAASGSTVEKYTMGWYREAPGKVRELVAAISKSGGSTYYADSVKGRFTISRDNAMNTVYLQMNSLNPEDTAVDYCAALQYPRAGFDYWGQGTQVTVSS
high polyreactivity
QVQLVESGGGIVQAGGSLRLSCAASGSTFDYYAMGWYRQAPGKEMELVAGISASGGSTYYADSVKGRFTISRDNAKNTVYLQMNSLKPEDTAVYYWASYYKPPGYDYWGQGTQVTVSS
low polyreactivity
QVQLVESGGGLVQAGGSLRLSCAASGSIFSWYAMGWYRQAPGKERELVAAISNSGGSTYYADSVKGRFTISRDNAKNTVYLQMNSLKPEDTAVYYCAAYDGDTYDWGQGTQVTVSS
high polyreactivity

From here, focus on the item given below.
Give a short answer stating reported polyreactivity (PSR sort gate) for QVQLVESGGGLVQAGGSLRLSCAASGRIFDGYAMGWYRQAPGKERELVAAISSRGGRTYYADSVKGRFTISRDNAKNTVYLQMNSLKPEDTAVYYCAADDPYGEGDYWGQGTQVTVSS .
low polyreactivity

---

# protocol.text: yeast display, Sf9 membrane polyspecificity reagent, FACS + sequencing; frameworks hold sequencing errors
endpoint.label: polyreactivity (PSR sort gate)

QVQLVESGGGLVQAGGSLRLSCAASGSTISYYAMGWYRQAPGKERELVAAITWNGGSTYYADSVKGRFTISRDNAKNTVYLQMNSLKPEDTAVYYCAKDSYYYDYDYWGQGTQVTVSS
low polyreactivity
QVQLVESGGGLVQAGGSIRLSCAASGSTFYAYAMGWYRQAPGKERELVAAIDTGGSTYYADSVKGRFTISRDNAKNTVYLQMNSLKPEDTAVYYCNAVVDTTEYPYEYDYWGQGTQVTVSS
low polyreactivity

---

# protocol.text: yeast display, Sf9 membrane polyspecificity reagent, FACS + sequencing; frameworks hold sequencing errors
endpoint.label: polyreactivity (PSR sort gate)

Answered cases to consult:
QVQLVESRGGLVQAGGSLRLSCAPSGLIFWAYARGWYRQAPGNERELVAAINWRGGSTYYADSVKGRFTISRDNAKNTVYLQMNSLKPEDTAVYYCAADSYYDEYDYWGQGTQVTVSS
low polyreactivity
QVQLVESGGGLVQAGGSLRLSCAASGFTFGSYAMGWYRQAPGKERELVAAITSRGGSTYYADSVKGRFTISRDNAKNTVYLQMNSLKPEDTAVYYCNAVLPVYRTNMDYWGQGTQVTVSS
high polyreactivity
QVQLVESGGGLVQAGGSLRLSCAASGRTFGYYAMGWYRPAPGKEREFVAAISFRTTSTYYADSVKGRFTISRDNAKNTVYLQLNSLKPEDTAVYYCNVVVKGAWDYYPYDYWGQGPQVTVSS
high polyreactivity
QVQLVESGGGLVQAAGSLRLSCAASGITFSRNGMGWYRQAPGKERELFAAISTSGDSTDYADSVKGRFTISRDNAKNTVYLQMNSLKPEDTAVYYCNRDFSLVVHYKFDYWGQGTQVTVSS
low polyreactivity

Give a short answer stating reported polyreactivity (PSR sort gate) for QVQLVESGGGLVQAGGSLRLSCAASGSTFEGNAMGWYRQAPGKERELVAAISSGGRTYYADSVKGRFTISRDNAKNTVYLQMNSLKPEDTAVYYCAAYVRRGFDWGQGTQVTVSS .
high polyreactivity

---

# protocol.text: yeast display, Sf9 membrane polyspecificity reagent, FACS + sequencing; frameworks hold sequencing errors
endpoint.label: polyreactivity (PSR sort gate)

QVQLVESGGGLVQAGGSLRLSCAASGRTFRTYTMGWYRQAPGKERELVAAISWSGSSTYYADSVKGRFTISRDNAKNTVYLQMNSLKPEDTAGYYCAARGLYDYGYWGQGTQVTVSS
high polyreactivity
QVQLVESGGGLVQAGGSLRLSCAASGIILPYYVMGWYRQAPGKEREFVADITWSGGSTYYADSVKARFTISRDNAKNTVYLQMNSLKPEDTAVYYCAAEGQWYYFFDMDYWGQGTQVTVSS
high polyreactivity
QVQLVESGGGLVQAGGSLRLSCAASGLIFLRNAMGWYRQAPGKERELVAAISRSGGSTYYADSVKGRFTISRDYAKNTVYLQMNSLKPDDTAVYYCAKYGYGGVIPGPDHYDYWGQGTQVTVSS
high polyreactivity
QVQLVESGGGLVQAGGSLRISCAASGLTFWAYAMGWYRQAPGKEREFLAAISWSGDSTYYADSVKGRFTISRDNAKNTVYLQMNSLKPEDTAVYYCAAEWYYVYIAPYDYWGLGTQVTVSS
low polyreactivity
QVQLVESGGGLVQAGGRLRLSCAASGFIFPLYAMGWYRQAPGKERELVAAIRASSGSTYYADSVKGRFTISRDNAKNSVYLQMNSLKPEDTAVYYCNARQYVWYPYEYWGQGTQVTVSS
high polyreactivity

Give a short answer stating reported polyreactivity (PSR sort gate) for QDQLVESGGGLVQAGGSLRLSCAASGSTIWGNAMGWYRQAPGKERELVAAITSTGSTNYADSVKARFTISRDNAKNTVYLQMNSLKPEVTAVYYCATAYYHTYWPTRRYYYWGQGTQVTVSS .
high polyreactivity

Give a short answer stating reported polyreactivity (PSR sort gate) for QVQLVESGGGLVQAGGSLRLSCAASGSIFGDNAMGRYRQAPGKERELVAVISSSGSTYYADSVKGRFTISRDTAMNTVYLQMNSLKAEDTAVYYCNAYEFDWYEEYYYWGQGTQVTVSS .
low polyreactivity

Give a short answer stating reported polyreactivity (PSR sort gate) for QVQLVESGGGLVQAGGSLRLSCAASGSIFYVYAMGWYRQAPGKERELDAGITTSGGSTYYADSVKGRFTISRDNAKNTVYLQMKSLKPEDTAVYYCATRNAFTAGSYNVYYGEYYWGQGTQVTVSS .
low polyreactivity

Give a short answer stating reported polyreactivity (PSR sort gate) for QVQLVESGGGLVQAGGSLRLSCAASGRTFYLYAMGWYRPAPGKERELVAAITSGGSTNYADSVKGRFTISRDNAKNTVYLQMNSLKPEDTAVYYCNAYKRGYLYRYNYWGQGTQVTVSS .
high polyreactivity

Give a short answer stating reported polyreactivity (PSR sort gate) for QVQLVESGGCLVQAGGSLRLSCAASGRIFYRYAMGWSRQAPGKVRELVATISWSGGSTYYAHSVKGRFTISRDNAKYTVYLQLNSLKPEDTAVYYCNAAYGNVSRVYYLIEHDYWGQGTQVTVSS .
high polyreactivity

Give a short answer stating reported polyreactivity (PSR sort gate) for QVQLVESGGGLVQAGGSLRLSCAASGRTFYKYGMVLYRKAPGKERELVAAIRWSGGSTYYADSVKGRFTISRDNAKYTVYFQMNSLKPEDTAVYYCATRSGFGYGYWGQGTQVNVSS .
high polyreactivity

---

# protocol.text: yeast display, Sf9 membrane polyspecificity reagent, FACS + sequencing; frameworks hold sequencing errors
endpoint.label: polyreactivity (PSR sort gate)

Answered cases to consult:
QVQLVESGGGLVQAGGSLRLSCAASGSIFGRNAMGLYRQAPGKERELVAAITDGGNTNYADSVKGRFTISRDNAKNTVYLQMNSLNPEDTAVYYCAARIPGTYGGRYGYDYWGQGTQVTVSS
low polyreactivity
QVQLVESGGGLVQAGGSLRLSCAASGTILSFNAMAWYRQAPGKERELVAAMSRGGSTNYADSVKGRFTISRDNEKNTVYLQMNCLIPEDTAVYYCAALRPYGKEDVSDGGMDYWGQGTQVTVSS
high polyreactivity
QVQLVESGGGLVQAGGSLRLSCAASGFIFYIYAMGWYRQAPGKERELVAAISWNGGSTYYADSVKGRFTISRDNAKNTVYLQMNSLKPEDTAVYYCATLARYRYGTGRFDYCGQGTQVTVSS
high polyreactivity
QVQLVDSGGGLVQAGGSLSLSCAASGSTFKHYAMGWYRQAPGKERELVAAISSRGGSTHYADSVKGRFTISRDNAKNTVYLQMNSLKPEDTAVYYCARDTDTLSSRSSDYDYWGQGTQVTVSS
low polyreactivity
QVQLVDSGGGLVQAGGSLRLSCAASGSIFTYNGKVWYRQAPGKEREFVAAITWTGGSTYADSVKGRFTISSDNSNNTVYLQMNSLKREDTAVYYCAAVRRISWYTPVNTRRYYYWGQGTQVTVSS
high polyreactivity
QVQLVESGGGLVQAGGSLRLSCAASGSTFFSYVMGWYRQAPGKERELVAAISNGGSTYYADSVKGRFTISRDNAKNSVYLQMNSLKPEDTAVYYCAAGGRRKRGNYWGQGTQVTVSS
high polyreactivity

From here, focus on the item given below.
Give a short answer stating reported polyreactivity (PSR sort gate) for QVQLVESGGGLVQAGGSLRLFCAASGRIFSAYAMGLYRQAPGKERELVAGISSRGGSTYYADSVKGRFTISRDNAKNTVYLQMNSLKPEDTAVYYCAKPYGRRYGRLHDYWGQGTQVTVSS .
high polyreactivity
